Reported mean nematode size ln(EXT) (ln) values are given for each entry in this list.
Test system: Caenorhabditis elegans N2
Test: mean nematode size ln(EXT) after 48 h, plate-adjusted (DMSO control set to 6) (ln(EXT), control-adjusted); higher = larger nematodes / less growth inhibition
Conditions: 5 µM; exposure time 48 h
Where a name gives a salt, the structure may show the parent alone.
API note: the answer field is a bare number with no unit suffix.

Consider the worked cases shown below.
molecule=Clc1ccc(Cl)cc1 obs_value=5.94
molecule="CC(CO)OC(C)CO.CC(O)COCC(C)O (stereo unspecified)" obs_value=5.79
molecule=CCCCCCCCCC(=O)O obs_value=5.85
molecule=CCCCCCCCCCCO obs_value=5.84
molecule=CS(=O)(=O)OCCCCOS(C)(=O)=O obs_value=5.94
molecule="CC(=O)OC/C=C(\\C)CCC=C(C)C [Geranyl acetate]" obs_value=5.73
molecule=Cc1cc(C)c(O)c(C)c1 obs_value=5.85
molecule=c1ccc2ncccc2c1 obs_value=5.78

The molecule `CN(C)C(=O)Nc1cccc(C(F)(F)F)c1` on Caenorhabditis elegans N2: mean nematode size ln(EXT) (ln) was 6.08

The molecule CN(C)CCCN1c2ccccc2Sc2ccc(Cl)cc21 [Chlorpromazine hydrochloride] on Caenorhabditis elegans N2: mean nematode size ln(EXT) (ln) was 5.82

The molecule `CC1=NNC(=O)N(/N=C/c2cccnc2)C1` on Caenorhabditis elegans N2: mean nematode size ln(EXT) (ln) was 5.8
